Overview of recorded FACS signal at 0.32 nM for various binders
- target_system: human Claudin-6 (CLDN6) (human) (UniProt P56747)
- assay: FACS, limiting dilution, OV90 cells
reported_endpoint: FACS signal at 0.32 nM

| binder | reported_endpoint | reported |
| --- | --- | --- |
| AB3-7 (antibody, V domains shown, humanized; also called AB23; humanized AB3-7) VH: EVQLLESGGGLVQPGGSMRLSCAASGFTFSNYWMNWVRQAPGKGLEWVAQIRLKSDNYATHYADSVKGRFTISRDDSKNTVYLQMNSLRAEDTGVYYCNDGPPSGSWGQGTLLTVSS VL: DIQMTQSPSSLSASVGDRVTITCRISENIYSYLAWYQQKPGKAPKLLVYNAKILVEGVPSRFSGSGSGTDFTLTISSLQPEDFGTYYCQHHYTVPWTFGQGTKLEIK | FACS signal at 0.32 nM | 393 |
| AB S3 (antibody, V domains shown) VH: EVQLLESGGGLVQPGGSMRLSCAASGFTFSNYWMNWVRQAPGKGLEWIAQIRLKSDNYVTHYTDSVKGRFTISRDDSKRTVYLQMNSLRAEDTGIYYCSDGPPSGSWGQGTLLTVSS VL: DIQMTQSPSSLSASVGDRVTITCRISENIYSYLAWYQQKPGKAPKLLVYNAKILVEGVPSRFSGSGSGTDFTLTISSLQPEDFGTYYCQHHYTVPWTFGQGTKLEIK | FACS signal at 0.32 nM | 482 |
| AB S9 (antibody, V domains shown) VH: QVQLVQSGAEVKKPGASVKMSCKASGYTFTTYTIHWVRQAPGQGLEWIGVINPSSGYTDYAQKFQGRVTLTADKSTSTVYMELSSLRSEDTAVYFCANGDYYVGYWGQGTLVTVSS VL: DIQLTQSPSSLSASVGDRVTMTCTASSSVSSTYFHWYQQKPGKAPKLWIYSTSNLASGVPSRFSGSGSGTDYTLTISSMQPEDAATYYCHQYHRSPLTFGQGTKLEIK | FACS signal at 0.32 nM | 2940 |
